These measurements were taken from paper PMC5540273.

system: MARK1; settings: concentration: 1 μM, replicates: in singlicate; n = 1
Give measured %Inh for each item. Keep answers brief.
Numbers only, in %.

Examples with their reported %Inh follow.
• CCC(=O)c1c(-c2ccccc2)c2cc(Cl)ccc2c(=O)n1Cc1cc(S(C)(=O)=O)n(CC(F)F)n1 = 0
• Nc1n[nH]c2nnc(-c3ccccc3)c(-c3ccccc3)c12 = 0
• Cl.NS(=O)(=O)c1cccc(Nc2cc(-c3ccc(F)cc3)n[nH]2)c1 = 0
• O=C(Nc1n[nH]c2cc(-c3ccccc3F)ccc12)C1CC1 = 0
• FC(F)(F)c1ccc(-c2ncn(CCCN3CCOCC3)c2-c2ccncc2)cc1 = 9

Batch: %Inh for all items listed.
1. CCc1ccc(-c2ccc3c(c2)-c2nn(C)cc2S(=O)(=O)N3C)cc1
2. Cc1c(Cn2c(C)nn3c(=O)cc(N4CCO[C@H](C)C4)nc23)cccc1C(F)(F)F
3. COC(=O)c1c(-c2ccccc2)c2cc(Br)ccc2c(=O)n1Cc1ccc(S(C)(=O)=O)cc1
4. COc1cc(Nc2nccc(N3CCC(NC(=O)C4COc5ccccc5O4)C3)n2)cc(OC)c1OC (stereo not shown)
5. COc1cc(Nc2ccnc3ccc(C(F)(F)F)cc23)cc(OC)c1OC
6. Nc1ncnc2c1ncn2-c1ccc(Cl)cc1
7. Cl.c1ccc(Cn2cnc3cc(Nc4ncnc5ccccc45)ccc32)cc1
8. CCn1c(-c2ccoc2)nc2cnccc21

24
0
1
0
8
0
0
0

====

test system: TAK1; construct: gene MAP3K7; conditions: concentration: 1 μM, replicates: in singlicate; n = 1
Binary label based on %Inh with cut-off 3%: below gives Met, not below gives Not met.

Solved cases (10 shown):
• CC(C)(C)c1ccc(C(=O)Nc2cn3cc(-c4ccccc4)ccc3n2)cc1 = Met
• CCc1ccc(-c2ccc3c(c2)-c2nn(C)cc2S(=O)(=O)N3C)cc1 = Met
• CCC(=O)c1c(-c2ccccc2)c2cc(Cl)ccc2c(=O)n1Cc1cc(S(C)(=O)=O)n(CCC(C)(C)O)n1 = Not met
• CN(C)c1cc(-c2ccc3c(N)n[nH]c3c2)nc(N)n1 = Met
• CCS(=O)(=O)c1ccc(OC)c(Nc2ncc(-c3ccc(F)cc3)o2)c1.Cl = Met
• COc1cc2ncn(-c3cc(OCc4ccncc4Br)c(C(N)=O)s3)c2cc1OC = Met
• O=C(NCCNc1ccnc(Nc2ccc(F)cc2)n1)Nc1ccc2c(c1)OCO2 = Met
• CCn1c(-c2nonc2N)nc2ccccc21 = Not met
• CCCNC(=O)Nc1ccc(Oc2ncnc3ccn(C)c23)cc1 = Not met
• Cc1nc(N(C)[C@H]2CN(C(=O)CC#N)CC[C@H]2C)c2cc[nH]c2n1 = Not met

is_below(%Inh, 3%) for "FC(F)(F)c1ccc(-c2ncn(CCCN3CCOCC3)c2-c2ccncc2)cc1" ?
Not met

is_below(%Inh, 3%) for "COc1cc(Nc2ccnc3ccc(C(F)(F)F)cc23)cc(OC)c1OC" ?
Met

is_below(%Inh, 3%) for "O=C(Nc1n[nH]c2cc(-c3ccccc3F)ccc12)C1CC1" ?
Met

is_below(%Inh, 3%) for "Nc1n[nH]c2nnc(-c3ccccc3)c(-c3ccccc3)c12" ?
Met

====

Give measured %Inh for each item. Keep answers brief.
test system: STK35; conditions: concentration: 1 μM, replicates: in singlicate; n = 1
Numbers only, in %.

Examples with their reported %Inh follow.
- CN(C)c1cc(-c2ccc3c(N)n[nH]c3c2)nc(N)n1: 0
- Cc1ccc(Oc2ccc(Nc3ncnc4cc[nH]c34)cc2C)cn1: 0
- O=C(Nc1n[nH]c2nc(-c3ccccc3)c(Br)cc12)C1CC1: 0
- Cn1c(=O)c(F)c(Nc2ccc(I)cc2F)c2c(=O)n(OC[C@H](O)CO)cnc21: 0
- Nc1ncnc2c1ncn2-c1cccc2ccccc12: 0

Batch: %Inh for all items listed.
1. Cl.NS(=O)(=O)c1cccc(Nc2cc(-c3ccc(F)cc3)n[nH]2)c1
2. COc1ccc(-c2cc3c(C)nc(N)nc3n([C@H]3CC[C@H](OCCO)CC3)c2=O)cn1
3. CCCC(=O)Nc1n[nH]c2ncc(-c3cccc4ccccc34)cc12
4. COC(=O)c1c(-c2ccccc2)c2cc(C)ccc2c(=O)n1Cc1ccccc1

1: 0; 2: 8; 3: 4; 4: 0

====

tested on: ERN1; settings: concentration: 1 μM, replicates: in singlicate; n = 1
Label f if %Inh falls below 20%; label t in every other case.

Solved cases (8 shown):
* COc1cc2nccc(Nc3ccc(OCc4ccc(NC(C)=O)cc4)cc3)c2cc1OC.Cl | f
* O=C(NCCNc1ccnc(Nc2ccc(F)cc2)n1)Nc1ccc2c(c1)OCO2 | t
* O=C(Nc1n[nH]c2nc(-c3ccccc3)c(Cl)cc12)C1CC1 | t
* O=C(Nc1ccc2c(c1)OCO2)NC1CCN(c2ccnc(NCc3ccc(F)cc3)n2)CC1 | f
* O=C1NC(=O)C(c2ccccc2)=C1Nc1cccc(O)c1 | f
* COc1ccc(-c2coc3ccc(-c4nnc(SCc5cccc(C#N)c5)o4)cc23)cc1 | f
* Nc1nccc2scc(-c3ccc4c(c3)CCN4C(=O)Cc3ccccc3)c12 | f
* Nc1nc(-c2ccccc2F)c(-c2ccnc3ccccc23)s1 | f

Check this molecule for %Inh at or above 20%: "Cc1cccc(-c2nc(Nc3ccc4c(cnn4C)c3)c3ccccc3n2)n1"
t

Check this molecule for %Inh at or above 20%: "Fc1cccc(CSc2nnc(-c3ccc4c(c3)CCO4)o2)c1"
f

Check this molecule for %Inh at or above 20%: Cc1nnc(-c2ccc3ncn(-c4ccc(S(C)=O)cc4)c3c2)o1 (centres unmarked)
f

Check this molecule for %Inh at or above 20%: "Cc1nnc(-c2ccc(C)c(-c3ccc(C(=O)O)cc3)c2)o1"
f

Check this molecule for %Inh at or above 20%: "Nc1n[nH]c2nnc(-c3ccccc3)c(-c3ccccc3)c12"
f

Check this molecule for %Inh at or above 20%: "Cc1nc(N(C)[C@H]2CN(C(=O)CC#N)CC[C@H]2C)c2cc[nH]c2n1"
f

====

test system: NEK5; conditions: concentration: 1 μM, replicates: in singlicate; n = 1
measurementName: %Inh (%)
Numbers only, in %.

Batch: %Inh for all items listed.
1. C[C@@H]1CC[C@H](C(=O)NC2CCCCC2)CN1c1cc(-c2ccc3c(N)n[nH]c3c2)nc(N)n1 [GSK2291363]
2. O=C(Nc1ccc2c(c1)OCO2)NC1CCN(c2ccnc(NCc3ccc(F)cc3)n2)CC1 [GSK1379859]

[22, 17]

Batch: %Inh for all items listed.
1. COc1cc2nccc(Nc3ccc(OCc4ccc(NC(C)=O)cc4)cc3)c2cc1OC.Cl [GW440135]
2. CC(C)(C)c1ccc(C(=O)Nc2cn3cc(-c4ccccc4)ccc3n2)cc1
3. Cc1ccc(-c2ccc3c(ccc4sc5c(c43)NC[C@@H](C)N=C5N(C)C)n2)cn1
4. COc1cc2nccc(Nc3cccc(Oc4ccccc4)c3)c2cc1OC.Cl [GW284543]
5. COc1ccc(-n2cnc3c(N)ncnc32)cc1 [SKF-97236]
6. O=C(Nc1n[nH]c2nc(-c3ccccc3)c(Cl)cc12)C1CC1 [SB-734909]
7. COc1cc(Nc2nccc(N3CCC(NC(=O)C4COc5ccccc5O4)C3)n2)cc(OC)c1OC (stereo not drawn) [GSK1379761]

[0, 0, 0, 0, 0, 11, 97.3]

Batch: %Inh for all items listed.
1. O=c1cc(N2CCOCC2)nc2n(Cc3ccc(F)c(Cl)c3)ccn12 [GSK2297099]
2. O=C(NCCNc1ccnc(Nc2ccc(F)cc2)n1)Nc1ccc2c(c1)OCO2 [GSK1379882]
3. COc1cc2ncn(-c3cc(OCc4ccc(S(C)(=O)=O)cc4)c(C(N)=O)s3)c2cc1OC [GW869979]

9
15
20

====

test system: FLT4;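 note: kd values determined as follow-up on hits from a single-replicate KINOMEscan panel screen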
measurementName: pKd
Answers are plain numbers, as −log10 of the molar value.

// pKd lookup, compound = "COc1cc2nccc(Nc3ccc(OCc4ccc(NC(C)=O)cc4)cc3)c2cc1OC.Cl" , result: 6.32

====

system: WNK2; settings: concentration: 1 μM, replicates: in singlicate; n = 1
measurementName: %Inh (%)
One number for each entry, in %.

* O=C(Nc1n[nH]c2nc(-c3ccccc3)c(Br)cc12)C1CC1 | 0
* CCS(=O)(=O)c1ccc(OC)c(Nc2ncc(-c3ccc(F)cc3)o2)c1.Cl | 4
* Cc1c(Cn2c(C)nn3c(=O)cc(N4CCO[C@H](C)C4)nc23)cccc1C(F)(F)F | 4
* O=C(Nc1n[nH]c2nc(-c3ccccc3)c(Cl)cc12)C1CC1 | 0
* Cc1nnc(-c2ccc3ncn(-c4ccc(S(C)=O)cc4)c3c2)o1 (stereo not drawn) | 0

Batch: %Inh for all items listed.
1. CCC(=O)c1c(-c2ccccc2)c2cc(Cl)ccc2c(=O)n1Cc1cc(S(C)(=O)=O)n(CC(N)=O)n1
2. COc1cccc(-n2cnc3c(N)ncnc32)c1
3. O=C(NCCNc1ccnc(Nc2ccc(F)cc2)n1)Nc1ccc2c(c1)OCO2
4. CCC(=O)c1c(-c2ccccc2)c2cc(Cl)ccc2c(=O)n1Cc1cc(S(C)(=O)=O)n(CCC(C)(C)O)n1
5. Nc1nc(N)c2nc(-c3ccccc3)[nH]c2n1
6. COc1cc(Nc2nccc(N3CCC(NC(=O)C4COc5ccccc5O4)C3)n2)cc(OC)c1OC (stereo not drawn)
7. Cc1cccc(-c2nc(Nc3ccc4c(cnn4C)c3)c3ccccc3n2)n1

[0, 0, 18, 31, 9, 19, 7]

Batch: %Inh for all items listed.
1. COc1cc(OC)cc(-c2cc3cnc(N)nc3nc2NC(=O)NC(C)(C)C)c1
2. Cc1ccc(-c2ccc3c(ccc4sc5c(c43)NC[C@@H](C)N=C5N(C)C)n2)cn1
3. COc1cc2nccc(Nc3ccc(OCc4ccc(NC(C)=O)cc4)cc3)c2cc1OC.Cl
4. CCC(=O)c1c(-c2ccccc2)c2cc(Cl)ccc2c(=O)n1Cc1cc(C(=O)NC2CC2)n(C)n1
5. COc1cc2ncn(-c3cc(OCc4ccc(S(C)(=O)=O)cc4)c(C(N)=O)s3)c2cc1OC
6. Cc1nc(N(C)[C@H]2CN(C(=O)CC#N)CC[C@H]2C)c2cc[nH]c2n1
7. CCC(=O)c1c(-c2ccccc2)c2cc(Cl)ccc2c(=O)n1Cc1cc(S(C)(=O)=O)n(CC(F)F)n1

1: 0; 2: 0; 3: 16; 4: 0; 5: 58; 6: 0; 7: 0
